# maps each entry to its pIC50
tested-system: Human PDE4C1 (Homo sapiens (Human))
Sequence (Q08493 2-712): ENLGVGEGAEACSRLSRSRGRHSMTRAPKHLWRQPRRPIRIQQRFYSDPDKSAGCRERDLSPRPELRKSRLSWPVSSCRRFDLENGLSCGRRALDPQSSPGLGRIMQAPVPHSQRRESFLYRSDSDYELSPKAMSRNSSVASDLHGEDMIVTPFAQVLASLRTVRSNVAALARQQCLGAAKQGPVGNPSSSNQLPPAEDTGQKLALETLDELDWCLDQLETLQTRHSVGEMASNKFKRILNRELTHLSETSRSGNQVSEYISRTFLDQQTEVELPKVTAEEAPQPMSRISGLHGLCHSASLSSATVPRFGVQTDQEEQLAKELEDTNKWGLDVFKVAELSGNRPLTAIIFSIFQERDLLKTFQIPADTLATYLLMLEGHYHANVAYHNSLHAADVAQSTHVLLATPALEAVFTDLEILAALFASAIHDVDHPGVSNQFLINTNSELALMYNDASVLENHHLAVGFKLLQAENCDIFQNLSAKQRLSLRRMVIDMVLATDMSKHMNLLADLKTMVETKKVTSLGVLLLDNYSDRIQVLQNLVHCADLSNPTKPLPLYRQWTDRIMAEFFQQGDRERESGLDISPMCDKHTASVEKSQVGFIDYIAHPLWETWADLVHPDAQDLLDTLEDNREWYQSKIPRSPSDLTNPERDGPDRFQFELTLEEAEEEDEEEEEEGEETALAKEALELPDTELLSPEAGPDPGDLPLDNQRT
experimental-protocol: PDE4C1 Scintillation Proximity Assay (SPA), inhibition of enzyme activity
Format: biochemical
measurement-conditions: Table 9, geometric mean of 2-9 determinations unless otherwise indicated, read-out: Human PDE4C FL
Here pIC50 is given on a logarithmic scale as minus log10 of the concentration in mol/L.

**Q:** Quick check: pIC50 of "O=C1c2c(-c3ccc4c(c3)CCO4)c3ncccc3n2CCN1C1CC1" ?
**A:** 8.26

**Q:** Quick check: pIC50 of "C[C@@H]1Cn2c(c(-c3ccc(Cl)cc3)c3ncccc32)C(=O)N1C1CC1" ?
**A:** 7.55

**Q:** Quick check: pIC50 of "Cc1cc(Cl)c(F)cc1-c1c2c(n3c1C(=O)N(C1CC1)CC3)CCCO2" ?
**A:** 8.61

----------
tested-system: human PDE4D3 (Homo sapiens (Human))
Sequence (Q08499 186-808): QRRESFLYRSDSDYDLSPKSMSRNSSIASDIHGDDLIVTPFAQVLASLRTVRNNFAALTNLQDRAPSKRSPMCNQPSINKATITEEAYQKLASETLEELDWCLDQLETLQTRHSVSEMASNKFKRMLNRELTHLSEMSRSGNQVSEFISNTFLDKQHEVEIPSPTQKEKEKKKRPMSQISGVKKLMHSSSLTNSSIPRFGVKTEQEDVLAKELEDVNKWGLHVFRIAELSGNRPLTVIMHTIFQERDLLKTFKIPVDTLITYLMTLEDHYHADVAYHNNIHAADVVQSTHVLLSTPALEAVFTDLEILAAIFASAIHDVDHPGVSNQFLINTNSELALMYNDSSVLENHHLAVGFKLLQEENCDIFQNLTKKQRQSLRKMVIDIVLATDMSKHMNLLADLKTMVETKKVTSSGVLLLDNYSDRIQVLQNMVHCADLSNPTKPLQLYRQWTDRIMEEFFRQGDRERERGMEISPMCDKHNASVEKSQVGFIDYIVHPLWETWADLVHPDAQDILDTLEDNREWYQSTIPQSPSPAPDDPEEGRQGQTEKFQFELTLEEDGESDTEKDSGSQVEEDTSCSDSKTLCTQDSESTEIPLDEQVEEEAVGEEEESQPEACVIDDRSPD
experimental-protocol: PDE4D3 Scintillation Proximity Assay (SPA), inhibition of enzyme activity
Assay type: biochemical
measurement-conditions: Table 10, geometric mean of 2-9 determinations unless otherwise indicated, read-out: Human PDE4D FL
measure: IC50

{"columns": ["compound", "tested-system", "observed-measurement"],
 "data": [
  ["Cc1csc(-c2c3n(c4cccnc24)CCN(C2CC2)C3=O)n1 [Example 82]", "human PDE4D3 (Homo sapiens (Human))", "> 30 µM"],
  ["COc1ncc(-c2c3n(c4nccnc24)CCN(C2CC2)C3=O)cn1 [Example 87]", "human PDE4D3 (Homo sapiens (Human))", "> 28.7 µM"]
]}

Here's the next entry for you.
**Q:** Recall the recorded IC50 for Cc1ccc(-c2c3n(c4nccnc24)CCN(C2CC2)C3=O)cn1 [Example 83] with human PDE4D3 (Homo sapiens (Human)) and state it.
**A:** > 29.7 µM

----------
tested-system: Human PDE4C1 (Homo sapiens (Human))
experimental-protocol: PDE4C1 Scintillation Proximity Assay (SPA), inhibition of enzyme activity
Format: biochemical
measurement-conditions: Table 9, geometric mean of 2-9 determinations unless otherwise indicated, read-out: Human PDE4C FL
# maps each entry to its pIC50
Here pIC50 is given on a logarithmic scale as minus log10 of the concentration in mol/L.

Examples with their reported pIC50 follow.
{"columns": ["molecule", "measure", "observed-measurement"],
 "data": [
  ["O=C1c2c(-c3ccc(Cl)cc3)c3c(n2CCN1C1CC1)CCCO3 [Example 75]", "pIC50", 7.93],
  ["N#Cc1ccc(-c2c3n(c4cccnc24)CC2CCCN2C3=O)cc1 (stereo not drawn) [Example 61]", "pIC50", 7.22]
]}

**Q:** Quick check: pIC50 of O=C1c2c(-c3ccc(Cl)cc3)c3ncsc3n2CCN1C1CC1 [Example 27] ?
**A:** 8.04

**Q:** Quick check: pIC50 of O=C1c2c(-c3cccc(Cl)c3)c3ncccc3n2CCN1C1CC1 [Example 48] ?
**A:** 8.50

**Q:** Quick check: pIC50 of O=C1c2c(-c3cc(F)c(Cl)cc3F)c3c(n2CCN1C1CC1)CCCO3 [Example 77] ?
**A:** 8.23

**Q:** Quick check: pIC50 of COc1ccc(-c2c3n(c4cccnc24)CCN(C2CC2)C3=O)c(F)c1 [Example 54] ?
**A:** 7.45

**Q:** Quick check: pIC50 of Cc1ccc(-c2c3n(c4cccnc24)CCN(C2CC2)C3=O)cc1 [Example 20] ?
**A:** 7.94

**Q:** Quick check: pIC50 of O=C1c2c(-c3ccc4ncnn4c3)c3ncccc3n2CCN1C1CC1 [Example 58] ?
**A:** 7.20

**Q:** Quick check: pIC50 of O=C1c2c(-c3cc(F)c(F)c(F)c3)c3ncccc3n2CCN1C1CC1 [Example 40] ?
**A:** 8.36
